measurement_target: T1, ectodomain of human TfR1 (His10-hTfR1; SEQ ID NO:110) (human, UniProt P02786 89-760)
T1 construct: also called ectodomain of hTfR1
T1 sequence (P02786 other isoform, or with tags, fused parts or gaps): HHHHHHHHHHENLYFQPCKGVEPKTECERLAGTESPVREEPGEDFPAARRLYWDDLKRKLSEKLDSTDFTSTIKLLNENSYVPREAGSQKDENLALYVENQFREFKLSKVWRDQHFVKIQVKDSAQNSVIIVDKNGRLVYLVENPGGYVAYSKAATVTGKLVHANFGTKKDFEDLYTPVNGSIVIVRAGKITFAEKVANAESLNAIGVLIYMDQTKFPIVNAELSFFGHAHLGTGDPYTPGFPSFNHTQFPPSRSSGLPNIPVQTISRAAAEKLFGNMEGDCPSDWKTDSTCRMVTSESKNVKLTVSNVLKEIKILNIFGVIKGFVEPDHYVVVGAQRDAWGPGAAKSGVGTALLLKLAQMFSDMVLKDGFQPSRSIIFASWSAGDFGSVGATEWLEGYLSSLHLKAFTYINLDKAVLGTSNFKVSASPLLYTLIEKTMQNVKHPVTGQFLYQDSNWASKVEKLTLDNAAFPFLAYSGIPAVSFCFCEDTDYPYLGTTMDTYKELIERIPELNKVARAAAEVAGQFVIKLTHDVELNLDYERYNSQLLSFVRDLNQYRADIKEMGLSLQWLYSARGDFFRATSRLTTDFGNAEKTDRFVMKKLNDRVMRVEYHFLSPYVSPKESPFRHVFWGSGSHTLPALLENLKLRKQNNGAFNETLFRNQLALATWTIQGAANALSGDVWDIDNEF
test_details: indirect ELISA: plate coated with 1 µg/ml hTfR1 ectodomain, Fab in 1:3 serial dilution, anti-human IgG F(ab')2-HRP
experimental_readout: binding result

[
  {
    "binder": "h26D3-HC8/LC5 (Fab, V domains shown, His-tagged Fab; also called double alanine mutant of h26D3 (VH Y60A, VL Y97A)) VH: EVQLVQSGAEVKKPGSSVKVSCKASGYIFTDYNMDWVRQAPGQGLEWIGDINPDYDTTSANEKFKGRATLTVDKSTSTAYMELSSLRSEDTAVYYCARGGYSGSSYYHPMDYWGQGTLVTVSS VL: DIQMTQSPSSVSASVGDRVTITCKSSQSLLYSTNQKNYLAWYQQKPGKAPKLLIYWASTRESGVPSRFSGSGSGTDFTLTISSLQPEDFATYYCQQAFIYPRTFGQGTKVEIK",
    "experimental_readout": "binding result",
    "recorded_value": "binds"
  },
  {
    "binder": "h26D3-HC10/LC1 (Fab, V domains shown, His-tagged Fab; also called double alanine mutant of h26D3 (VH Y106A, VL Y31A)) VH: EVQLVQSGAEVKKPGSSVKVSCKASGYIFTDYNMDWVRQAPGQGLEWIGDINPDYDTTSYNEKFKGRATLTVDKSTSTAYMELSSLRSEDTAVYYCARGGYSGSSAYHPMDYWGQGTLVTVSS VL: DIQMTQSPSSVSASVGDRVTITCKSSQSLLASTNQKNYLAWYQQKPGKAPKLLIYWASTRESGVPSRFSGSGSGTDFTLTISSLQPEDFATYYCQQYFIYPRTFGQGTKVEIK",
    "experimental_readout": "binding result",
    "recorded_value": "binds"
  }
]
